- measured.on: T1, HD49 (huntingtin exon 1 protein with 49 polyQ repeats after cleavage of the GST tag; aggregation reaction) (human, UniProt P42858 1-88)
- T1 chain: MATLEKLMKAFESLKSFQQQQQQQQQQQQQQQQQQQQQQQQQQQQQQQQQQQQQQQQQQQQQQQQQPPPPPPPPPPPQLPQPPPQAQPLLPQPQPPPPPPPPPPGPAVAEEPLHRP
- assay.name: ELISA
experimental.endpoint: EC50

Asked: Param item = NI-302.8M1 (antibody, V domains shown) VH: EVQLVQSGAEVKKPGASVKVSCKASGYTFTIYYMHWVRQAPGQGLEWMGGISPSGAHTMYAQNFQGRVTVTRDTSTSTVYMELSSLRSEDTAVYYCARGSTVTNYRPFDYWGQGTLVTVSS VL: DIQMTQSPSSLSASVGDRVTITCRASQDISNYLAWYQQKPGKVPKLLIFAASTLQSGVPSRFGGSGSGTDFTLTISSLQPEDVATYYCQNYNSGPPPFGPGTKVDIK ; retrieve measured EC50.
Given back: 0.003 nM

Asked: Cool, now NI-302.72F10 (antibody, V domains shown) VH: EVQLVETGGGFVQPGGSLRLSCAASGFNFGSYAMSWVRQAPGKGLEWVSDISGIGSNTYYADSVKGRFTISRDNSDNTLYLDMSSLRAEDTARYYCAKDRKRSGWYEQWGQGTLVTVSS VL: EIVMTQSPATLTLSPGERATLSCRASQSISAYLGWYQQKPGQAPRLLIYDASIRATGIPDRFSGSGSGTDFTLTISSLEPEDSAVYYCHQRSKWPLTFGGGTKVEIK
Given back: 26 nM

Asked: Now this one: NI-302.2A2 (antibody, V domains shown) VH: EVQLVESGGGLVQPGGSLRLSCAASGFTFSTYWMNWVRQAPGKGLEWVANIKPDGSDKYYVDSVKGRFTISRDNAKNSLYLQMNSLRDEDTAVYYCARGDGSGWNVYWGQGTLVTVSS VL: DIQMTQSPDSLAVSLGERATINCKSSQSLLYTSKNKDSKNYLGWYQQKPGQPPKLLIYWASTRESGVPDRFSGSGSGTDFTLTISSLQAEDVAVYYCQQYYTTPQFGGGTKVEIK
Given back: > 100 nM

Asked: Then what about the binder NI-302.74C11 (antibody, V domains shown) VH: EVQLVQSGTEVQKPGASVKVSCKASGYSFTGYFLHWVRQAPGQGLEWMGWINPNSGDTNYAEKFRGRIIMTRDTSVSTAHMELSSLRFDDTALYYCTREAPDPGAETDVWGQGTTVTVSS VL: QSVLTQPPSVSVSPGQTARITCSGDAVPKQYIYWYQQKPGQAPILVIYKDTQRPSGIPERFSGSNSGTTVTLTITGVQADDEGDYYCQSADSSATWVFGGGTKLTVL ?
Given back: 0.5 nM

Asked: Would you kindly repeat that for NI-302.12H2 (antibody, V domains shown) VH: EVQLVQSGGGLVQPGGSLRLSCEASGFTFSNYAMGWVRQAPGKGLEWVSVISGTGGSTYYADSVKGRFTISRDNSMNTLYLQMNSPRADDTAVYYCAKDLRKISGPLYYYGMDVWGQGTTVTVSS VL: EIVLTQSPGTLSLSPGERATLSCRASQSVSSGYLAWYQQKPGQAPRLLIYGASTRATGIPDRFSGSGSGTDFTLTISRLEPEDFAVYYCQHYGASSYTFGQGTKLEIK ?
Given back: 0.04 nM
